Assay: Spectral characteristics: molar extinction coefficient and specific absorbance (UV spectrophotometry in ethyl acetate)
Assay type: physicochemical
Conditions: the 'at ...' part of the cell, 10 μg/ml
READOUT_NAME: Wavelength of maximum specific absorbance UVA

SMILES_RECORD	EXPERIMENTAL_VALUE
c1ccc(-c2nnc(-c3ccc(-c4ccc(-c5nnc(-c6ccccc6)c(-c6ccccc6)n5)cc4)cc3)nc2-c2ccccc2)cc1	at 330 nm
Fc1ccc(-c2nnc(-c3ccc(-c4nnc(-c5ccc(F)cc5)c(-c5ccc(F)cc5)n4)cc3)nc2-c2ccc(F)cc2)cc1	at 330 nm

* * *

Reported values of Absorption peaks for individual entries
Assay: Spectral distribution in UVA and UVB, 290 nm to 400 nm
Type: physicochemical
Conditions: range from 290 nm to 400 nm

MOLECULE	UNIT_STRING	Absorption peaks
CC(C)CCC(C)(C)c1ccc(-c2nnc(-c3ccc(-c4nnc(-c5ccc(C(C)(C)CCC(C)C)cc5)c(-c5ccc(C(C)(C)CCC(C)C)cc5)n4)cc3)nc2-c2ccc(C(C)(C)CCC(C)C)cc2)cc1	nm	340
c1ccc(-c2nnc(-c3ccc(-c4nnc(-c5ccccc5)c(-c5ccccc5)n4)cc3)nc2-c2ccccc2)cc1	nm	325
CCCCCCCCCCCCc1ccc(-c2nnc(-c3ccc(-c4nnc(-c5ccc(CCCCCCCCCCCC)cc5)c(-c5ccc(CCCCCCCCCCCC)cc5)n4)cc3)nc2-c2ccc(CCCCCCCCCCCC)cc2)cc1	nm	300
CC(C)(C)c1ccc(-c2nnc(-c3ccc(-c4nnc(-c5ccc(C(C)(C)C)cc5)c(-c5ccc(C(C)(C)C)cc5)n4)cc3)nc2-c2ccc(C(C)(C)C)cc2)cc1	nm	300
CCCCC(CC)COC(=O)C=Cc1ccc(OC)cc1 (centres unmarked) [Parsol MCX ®, reference compound]	nm	310
